Would you kindly list pKd for each of these binders?
biological target: T1, IL-13RA2 huFc (human); assay: SPR (Biacore T200), nickel-purified scFv
T1 construct: Expressed in 293F cells, purified on protein A; also called human IL13RA2; recombinant IL-13RA2
T1 sequence (chain, as listed by the source limits assumed): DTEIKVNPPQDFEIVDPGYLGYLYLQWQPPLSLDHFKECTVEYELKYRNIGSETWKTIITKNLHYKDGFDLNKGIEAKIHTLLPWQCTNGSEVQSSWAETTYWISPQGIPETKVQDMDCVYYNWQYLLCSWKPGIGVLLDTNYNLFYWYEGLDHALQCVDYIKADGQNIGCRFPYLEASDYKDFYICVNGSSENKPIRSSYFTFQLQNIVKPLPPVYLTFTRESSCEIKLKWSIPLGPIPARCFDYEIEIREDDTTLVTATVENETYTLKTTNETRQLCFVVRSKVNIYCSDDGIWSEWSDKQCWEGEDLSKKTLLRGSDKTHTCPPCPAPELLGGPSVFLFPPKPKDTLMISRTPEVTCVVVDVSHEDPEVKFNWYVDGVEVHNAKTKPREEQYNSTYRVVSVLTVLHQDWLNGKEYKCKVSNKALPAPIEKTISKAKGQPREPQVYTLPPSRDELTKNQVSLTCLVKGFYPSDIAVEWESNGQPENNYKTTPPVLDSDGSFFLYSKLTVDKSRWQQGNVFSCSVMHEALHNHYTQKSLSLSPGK
As a rule, pKd stands for the negative log10 of the concentration, concentration in M.

Exercise: Any idea what pKd was measured for 2C7 (scFv) (scFv, also called clone 2C7) scFv: EVQLLESGGGLVQPGGSLRLSCAASGFTFKLPAMSWVRQAPGKGLEWVSAITGSGGSTYYADSVKGRFTISRDNSKNTLYLQMNSLRAEDTAVYYCAKVRYGWGAGAFDYWGQGTLVTVSSGGGGSGGGGSGGGGSDIQMTQSPSTLSASVGDRVTITCRASQSISSWLAWYQQKPGKAPKLLIYDASSLESGVPSRFSGSGSGTEFTLTISSLQPDDFATYYCQQYDTYPPITFGQGTKVEIK ?
Solution: 8.27

Exercise: Next: 1D8 (scFv) (scFv, also called clone 1D8) scFv: EVQLLESGGGLVQPGGSLRLSCAASGFTFSRYAMNWVRQAPGKGLEWVSAINASGGSTYYADSVKGRFTISRDNSKNTLYLQMNSLRAEDTAVYYCAKVRYGWGAGAFDYWGQGTLVTVSSGGGGSGGGGSGGGGSDIQMTQSPSTLSASVGDRVTITCRASQSISSWLAWYQQKPGKAPKLLIYDASSLESGVPSRFSGSGSGTEFTLTISSLQPDDFATYYCQQYDTYPPITFGQGTKVEIK
Solution: 7.86
